Tested on: Escherichia coli TOP10
Experiment: shrunken log2 fold change of peptide-encoding DNA abundance (4.5 h post-induction vs induction); higher = less antimicrobial activity (less host growth inhibition)
Settings: time post-induction: 4.5 h; library: site-saturation at positions 5, 18, 19, 20
So basically: shrunken log2 fold change at -0.02 or higher? That is satisfied. Lower than -0.02? That is not satisfied.

Below, 3 sequences whose answers are already recorded.
Primary sequence: RRIRMRPPRLPRPRPRPAKTPRP
Cat: satisfied
//
Primary sequence: RRIRGRPPRLPRPRPRPMYCPRP
Cat: satisfied
//
Primary sequence: RRIRHRPPRLPRPRPRPKGEPRP
Cat: satisfied

Data request: Decide: is the reported value of shrunken log2 fold change for RRIRPRPPRLPRPRPRPSYFPRP equal to or greater than -0.02?
Data returned: not satisfied

Data request: Repeat for the following sequence: RRIRWRPPRLPRPRPRPTVSPRP
Data returned: not satisfied

Data request: Repeat for the following sequence: RRIRMRPPRLPRPRPRPCILPRP
Data returned: satisfied

Data request: Repeat for the following sequence: RRIRMRPPRLPRPRPRPKCGPRP
Data returned: satisfied

Data request: Repeat for the following sequence: RRIRLRPPRLPRPRPRPSREPRP
Data returned: not satisfied

Data request: Repeat for the following sequence: RRIRKRPPRLPRPRPRPLRPPRP
Data returned: satisfied

Data request: Repeat for the following sequence: RRIRRRPPRLPRPRPRPQHIPRP
Data returned: not satisfied

Data request: Repeat for the following sequence: RRIRARPPRLPRPRPRPSWTPRP
Data returned: not satisfied

Data request: Repeat for the following sequence: RRIRFRPPRLPRPRPRPVWRPRP
Data returned: satisfied

Data request: Repeat for the following sequence: RRIRNRPPRLPRPRPRPPPVPRP
Data returned: satisfied

Data request: Repeat for the following sequence: RRIRSRPPRLPRPRPRPSLLPRP
Data returned: not satisfied

---

Test system: Escherichia coli TOP10
Assay: shrunken log2 fold change of peptide-encoding DNA abundance (4.5 h post-induction vs induction); higher = less antimicrobial activity (less host growth inhibition)
Settings: time post-induction: 4.5 h; library: site-saturation at positions 5, 18, 19, 20
Our labelling divides records by shrunken log2 fold change into ranges: low: < -0.1; intermediate: ≥ -0.1 and < 0.04; high: ≥ 0.04

Primary sequence: RRIRVRPPRLPRPRPRPETFPRP
Cat: intermediate

Primary sequence: RRIRMRPPRLPRPRPRPSDVPRP
Cat: high

Primary sequence: RRIRGRPPRLPRPRPRPDSWPRP
Cat: high

Primary sequence: RRIRLRPPRLPRPRPRPPQYPRP
Cat: intermediate

Primary sequence: RRIRARPPRLPRPRPRPKLMPRP
Cat: high

Primary sequence: RRIRARPPRLPRPRPRPSIEPRP
Cat: intermediate

Data request: Sort into band: RRIRFRPPRLPRPRPRPRPMPRP
Data returned: high

Data request: Repeat for the following sequence: RRIRIRPPRLPRPRPRPRKWPRP
Data returned: high

Data request: Repeat for the following sequence: RRIRCRPPRLPRPRPRPSKGPRP
Data returned: low

Data request: Repeat for the following sequence: RRIRSRPPRLPRPRPRPWREPRP
Data returned: high

Data request: Repeat for the following sequence: RRIRIRPPRLPRPRPRPCGPPRP
Data returned: low

---

System: Escherichia coli TOP10
Assay: shrunken log2 fold change of peptide-encoding DNA abundance (4.5 h post-induction vs induction); higher = less antimicrobial activity (less host growth inhibition)
Details: time post-induction: 4.5 h; library: site-saturation at positions 5, 18, 19, 20
For each record, write down the corresponding shrunken log2 fold change.

Worked cases, shrunken log2 fold change given:
Primary sequence: RRIRNRPPRLPRPRPRPTLSPRP
Assay target: Escherichia coli TOP10
Result: 0.145
--
Primary sequence: RRIRIRPPRLPRPRPRPCTLPRP
Assay target: Escherichia coli TOP10
Result: -1.08
--
Primary sequence: RRIRERPPRLPRPRPRPGPCPRP
Assay target: Escherichia coli TOP10
Result: 0.183
--
Primary sequence: RRIRTRPPRLPRPRPRPHNKPRP
Assay target: Escherichia coli TOP10
Result: -0.702
--
Primary sequence: RRIRVRPPRLPRPRPRPWTVPRP
Assay target: Escherichia coli TOP10
Result: -0.782
--
Primary sequence: RRIRCRPPRLPRPRPRPRKSPRP
Assay target: Escherichia coli TOP10
Result: 0.126
--
Primary sequence: RRIRGRPPRLPRPRPRPLHYPRP
Assay target: Escherichia coli TOP10;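 note: peptides expressed intracellularly from a pBAD plasmid library in pooled LB shake-flask culture, induced with 0.3% L-arabinose, DNA abundance read by NGS, three biological replicates, DESeq2 with apeglm shrinkage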
Result: -0.0826

Data request: I have this sequence here, RRIRMRPPRLPRPRPRPNYKPRP , and I need its recorded shrunken log2 fold change.
Data returned: -0.504
